Data provenance: ChEMBL document CHEMBL5385943

- Tested on: Bacillus subtilis
- protocol-details: Antimicrobial activity against Bacillus subtilis assessed as reduction in microbial growth
- Type: functional

compound | MIC, µM
O=C1S/C(=C\c2cnc(C(F)(F)F)nc2)C(=O)N1C(=O)c1cc(F)cc(F)c1 | 9.7
O=C1S/C(=C\c2cnc(C(F)(F)F)nc2)C(=O)N1C(=O)c1ccc(C(F)(F)F)cc1 | 6.1
O=C1S/C(=C\c2cnc(C(F)(F)F)nc2)C(=O)N1C(=O)c1ccc(O)cc1 | 28.3
O=C1S/C(=C\c2cnc(C(F)(F)F)nc2)C(=O)N1C(=O)c1ccc(F)cc1 | 12.8
CN[C@@H]1[C@H](O[C@H]2[C@H](O[C@H]3[C@H](O)[C@@H](O)[C@H](N=C(N)N)[C@@H](O)[C@@H]3N=C(N)N)O[C@@H](C)[C@]2(O)C=O)O[C@@H](CO)[C@H](O)[C@H]1O [STREPTOMYCIN] | 11.5
O=C1S/C(=C\c2cnc(C(F)(F)F)nc2)C(=O)N1C(=O)c1ccc([N+](=O)[O-])cc1 | 10.2
O=C1S/C(=C\c2cnc(C(F)(F)F)nc2)C(=O)N1C(=O)c1ccccc1 | 19.5
O=C1S/C(=C\c2cnc(C(F)(F)F)nc2)C(=O)N1C(=O)c1ccc(Br)cc1 | 17.3
O=C1S/C(=C\c2cnc(C(F)(F)F)nc2)C(=O)N1C(=O)c1cc(F)c(F)c(F)c1 | 8.1
O=C1S/C(=C\c2cnc(C(F)(F)F)nc2)C(=O)N1C(=O)c1ccc(Cl)cc1 | 14.4
Cc1ccc(C(=O)N2C(=O)S/C(=C\c3cnc(C(F)(F)F)nc3)C2=O)cc1 | 24.9
